Test Name: LD50 in mice (intraperitoneal)
Condition: mouse, in vivo, ip, intraperitoneal administration
Quantity Name: LD50

{"Compound": "CC1(C)CC[C@]2(C(=O)O)CC[C@]3(C)C(=CC[C@@H]4[C@@]5(C)C[C@@H](O)[C@H](O)[C@](C)(CO)[C@@H]5CC[C@]43C)[C@@H]2[C@@H]1O", "LD50": "> 1000 mg/kg"}

Answer with reported LD50 of CC1(C)CC[C@]2(C(=O)OC3O[C@H](CO)[C@@H](O)[C@H](O)[C@H]3O)CC[C@]3(C)C(=CC[C@@H]4[C@@]5(C)C[C@@H](O)[C@H](O)[C@](C)(CO)[C@@H]5CC[C@]43C)[C@@H]2[C@@H]1O (some centres unmarked)
> 1000 mg/kg

Every entry's value here was drawn from patent US4103025A.
